# assayed_target: hα2A receptor (Homo sapiens, UniProt P08913)
# Construct: expressed in transfected cells
# Sequence (P08913 1-465): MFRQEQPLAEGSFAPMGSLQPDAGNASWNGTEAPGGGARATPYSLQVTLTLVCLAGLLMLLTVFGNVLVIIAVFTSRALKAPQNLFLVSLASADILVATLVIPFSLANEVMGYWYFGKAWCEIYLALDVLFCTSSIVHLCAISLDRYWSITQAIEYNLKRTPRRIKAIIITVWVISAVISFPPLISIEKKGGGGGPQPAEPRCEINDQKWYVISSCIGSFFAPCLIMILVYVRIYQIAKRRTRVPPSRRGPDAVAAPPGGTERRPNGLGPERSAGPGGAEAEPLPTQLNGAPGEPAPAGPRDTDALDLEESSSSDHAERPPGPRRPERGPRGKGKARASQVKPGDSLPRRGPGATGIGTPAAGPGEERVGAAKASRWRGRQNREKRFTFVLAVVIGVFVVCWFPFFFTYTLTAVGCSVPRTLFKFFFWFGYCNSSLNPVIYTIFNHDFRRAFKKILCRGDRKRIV
# assay_info: Radioligand binding experiment for hα2A receptor ([3H]-raulwolscine)
# details: membranes of CHO cells expressing human α2A receptor; [3H]raulwolscine 1 nM; read-out: hα2A pIC50 (converted)
For each entry below, report its IC50 value.
One number for each entry, in nM.

Q. So what's the measured IC50 for this one? COc1cc2c(cc1OCCOC(C)=O)C1=NOC(CN3CCN(CC(C)=Cc4ccccc4)CC3)C1CO2 (stereo not shown) [Compound 332]
A. 4.47

Q. So what's the measured IC50 for this one? COc1cc2c(cc1OC)C1=NOC(CN3CCN(Cc4ccc5cc(C)ccc5c4)CC3)C1CO2 (stereo not shown) [Compound 72]
A. 46.8

Q. So what's the measured IC50 for this one? COc1cc2c(cc1F)C1=NOC(CN3CCN(CC(C)=Cc4ccccc4)CC3)C1CO2 (stereo not shown) [Compound 241]
A. 16.6

Q. So what's the measured IC50 for this one? COc1ccc2c(c1)OCC1C2=NOC1CCN1CCN(Cc2ccc3ccccc3c2)CC1 (stereo not shown) [Compound 280]
A. 91.2

Q. So what's the measured IC50 for this one? COc1cc2c(cc1OC(C)=O)OCC1C2=NOC1CN1CCN(C/C(C)=C/c2cccc(F)c2)CC1 (single isomer, unassigned) [Compound 334]
A. 2.69

# batch size: 2; output IC50 per entry
1. COc1cc2c(cc1OC)C1=NOC(CN3CCN(CC(C)Oc4cccc(F)c4)CC3)C1CO2 (stereo not shown) [Compound 27]
2. COCCOCOc1ccc2c(c1)OCC1C2=NOC1CN1CCN(Cc2ccc3ccccc3c2)CC1 (stereo not shown) [Compound 267]

A.
4.07
3.24

----------
# assayed_target: hα2C receptor (Homo sapiens)
# Construct: expressed in transfected cells
# assay_info: Radioligand binding experiment for hα2C receptor ([3H]-raulwolscine)
# details: membranes of CHO cells expressing human α2C receptor; [3H]raulwolscine 1 nM; read-out: hα2C pIC50 (converted)
property_name: IC50 (nM)
Give bare numbers, in nM.

Below, 5 compounds whose answers are already recorded.
Q. So what's the measured IC50 for this one? COc1cc2c(cc1OC)C1=NOC(CN3CCN(Cc4ccc5cc(C)ccc5c4)CC3)C1CO2 (centres unmarked)
A. 66.1

Q. So what's the measured IC50 for this one? COc1cc2c(cc1OC)C1=NOC(CN3CCN(Cc4ccccc4C(F)(F)F)CC3)C1CO2 (centres unmarked)
A. 1000

Q. So what's the measured IC50 for this one? COc1cc2c(cc1OC)C1=NOC(CN3CCN(Cc4ccoc4)CC3)C1CO2 (centres unmarked)
A. 724

Q. So what's the measured IC50 for this one? COc1cc2c(cc1OC)C1=NOC(CN3CCN(Cc4ccc([N+](=O)[O-])cc4)CC3)C1CO2 (centres unmarked)
A. 1000

Q. So what's the measured IC50 for this one? COCCOc1ccc2c(c1)OCC1C2=NOC1CN1CCN(CC(C)=Cc2ccccc2)CC1 (centres unmarked)
A. 0.288

# batch size: 3; output IC50 per entry
1. C(=Cc1ccccc1)CN1CCN(CC2ON=C3c4ccccc4CCC32)CC1 (centres unmarked)
2. COc1cc2c(cc1OCCN(C)C)OCC1C2=NOC1CN1CCN(C/C(C)=C/c2ccccc2)CC1 (single isomer, unassigned)
3. COc1cc2c(cc1OC)C1=NOC(CN3CCN(CC(C)=Cc4ccc(F)cc4)CC3)C1CO2 (centres unmarked)

A.
[1260, 1.23, 8.13]

----------
For each entry below, report its IC50 value.
# assayed_target: hα2A receptor (Homo sapiens, UniProt P08913)
# Construct: expressed in transfected cells
# Sequence (P08913 1-465): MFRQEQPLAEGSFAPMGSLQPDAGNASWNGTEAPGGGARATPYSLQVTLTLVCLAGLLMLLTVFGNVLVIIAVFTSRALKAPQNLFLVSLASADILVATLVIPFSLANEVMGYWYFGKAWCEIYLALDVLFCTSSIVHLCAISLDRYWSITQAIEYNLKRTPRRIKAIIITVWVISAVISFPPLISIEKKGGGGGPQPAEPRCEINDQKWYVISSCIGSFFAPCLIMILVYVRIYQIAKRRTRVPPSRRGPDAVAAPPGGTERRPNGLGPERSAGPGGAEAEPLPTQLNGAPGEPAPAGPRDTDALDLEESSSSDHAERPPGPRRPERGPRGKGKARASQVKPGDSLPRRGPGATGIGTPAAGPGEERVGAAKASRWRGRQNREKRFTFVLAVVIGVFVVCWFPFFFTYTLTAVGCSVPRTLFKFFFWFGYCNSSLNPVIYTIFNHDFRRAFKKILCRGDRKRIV
# assay_info: Radioligand binding experiment for hα2A receptor ([3H]-raulwolscine)
# details: membranes of CHO cells expressing human α2A receptor; [3H]raulwolscine 1 nM; read-out: hα2A pIC50 (converted)

Below, 3 compounds whose answers are already recorded.
Q. So what's the measured IC50 for this one? COc1cc2c(cc1OC)C1=NOC(CN3CCN(Cc4cccc(Br)c4)CC3)C1CO2 (stereo not shown)
A. 195 nM

Q. So what's the measured IC50 for this one? COc1cc2c(cc1OC)C1=NOC(CN3CCN(CC(C)=Cc4cccc(F)c4)CC3)C1CO2 (stereo not shown)
A. 4.57 nM

Q. So what's the measured IC50 for this one? COc1cc2c(cc1OC)C1=NOC(CN3CCN(Cc4ccc5c(N)cccc5c4)CC3)C1CO2 (stereo not shown)
A. 19.5 nM

More entries:
Q. So what's the measured IC50 for this one? COc1cc2c(cc1OC)C1=NOC(CN3CCN(Cc4cc5ccccc5o4)CC3)C1CO2 (stereo not shown)
A. 19.1 nM

----------
# assayed_target: hα2C receptor (Homo sapiens, UniProt P18825)
# Construct: expressed in transfected cells
# Sequence (P18825 whole entry): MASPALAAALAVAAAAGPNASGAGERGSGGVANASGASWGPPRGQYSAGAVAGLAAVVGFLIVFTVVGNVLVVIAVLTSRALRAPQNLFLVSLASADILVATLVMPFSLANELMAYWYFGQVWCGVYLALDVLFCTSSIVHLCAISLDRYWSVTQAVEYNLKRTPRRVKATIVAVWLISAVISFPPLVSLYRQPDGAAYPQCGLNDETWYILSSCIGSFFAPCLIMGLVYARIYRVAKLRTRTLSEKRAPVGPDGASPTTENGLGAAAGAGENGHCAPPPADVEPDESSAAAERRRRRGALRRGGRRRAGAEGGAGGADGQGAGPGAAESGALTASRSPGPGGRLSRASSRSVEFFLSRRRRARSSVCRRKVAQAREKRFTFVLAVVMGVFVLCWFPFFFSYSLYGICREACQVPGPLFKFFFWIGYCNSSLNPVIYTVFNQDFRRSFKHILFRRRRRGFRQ
# assay_info: Radioligand binding experiment for hα2C receptor ([3H]-raulwolscine)
# details: membranes of CHO cells expressing human α2C receptor; [3H]raulwolscine 1 nM
For each entry below, report its hα2C pIC50 value.
Answers are plain numbers.

Below, 2 compounds whose answers are already recorded.
Q. # get_value(readout= hα2C pIC50, system= hα2C receptor (Homo sapiens, UniProt P18825)) for O=C(N1CC2C(=NOC2CN2CCN(CC=Cc3ccccc3)CC2)c2ccccc21)C(F)(F)F (stereo not drawn) [Compound 224]
A. 7.13

Q. # get_value(readout= hα2C pIC50, system= hα2C receptor (Homo sapiens, UniProt P18825)) for C=CC(=O)Oc1ccc2c(c1)OCC1C2=NOC1CN1CCN(CC(C)=Cc2ccccc2)CC1 (stereo not drawn) [Compound 251]
A. 8.26

Turning now to a further record.
Q. # get_value(readout= hα2C pIC50, system= hα2C receptor (Homo sapiens, UniProt P18825)) for C(=Cc1ccccc1)CN1CCN(CC2ON=C3c4cc5c(cc4OCC32)OCC5)CC1 (racemic) [Compound 279]
A. 8.24

----------
# assayed_target: hα2B receptor (Homo sapiens)
# Construct: expressed in transfected cells
# Sequence (P18089 whole entry): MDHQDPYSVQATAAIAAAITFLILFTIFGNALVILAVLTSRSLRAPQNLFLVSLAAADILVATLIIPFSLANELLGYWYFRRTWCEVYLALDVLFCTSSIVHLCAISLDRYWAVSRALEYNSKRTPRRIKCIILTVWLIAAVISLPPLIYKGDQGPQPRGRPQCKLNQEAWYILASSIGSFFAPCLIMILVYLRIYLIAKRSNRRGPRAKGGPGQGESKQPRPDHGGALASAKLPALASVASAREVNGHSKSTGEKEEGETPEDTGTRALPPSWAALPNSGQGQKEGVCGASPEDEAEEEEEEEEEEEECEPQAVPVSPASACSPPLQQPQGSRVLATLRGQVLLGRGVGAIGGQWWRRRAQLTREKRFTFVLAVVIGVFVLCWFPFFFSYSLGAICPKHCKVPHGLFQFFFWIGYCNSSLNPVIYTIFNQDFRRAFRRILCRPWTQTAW
# assay_info: Radioligand binding experiment for hα2B receptor ([3H]-raulwolscine)
# details: membranes of CHO cells expressing human α2B receptor; [3H]raulwolscine 1 nM; read-out: hα2B pIC50 (converted)
IC50 strictly less than 6 nM = true (1). Otherwise false (0).

Q. Does the reported IC50 of the following molecule sit strictly below 6 nM? COc1ccccc1C=CCN1CCN(CC2ON=C3c4cc(OC)c(OC)cc4OCC32)CC1 (centres unmarked)
A. true (1)

Q. Does the reported IC50 of the following molecule sit strictly below 6 nM? COc1ccc2c(c1)OCC1C2=NOC1CCN1CCN(Cc2ccc3ccccc3c2)CC1 (centres unmarked)
A. false (0)

Q. Does the reported IC50 of the following molecule sit strictly below 6 nM? COc1cc2c(cc1OC)C1=NOC(CN3CCN(Cc4ccc5c(N)cccc5c4)CC3)C1CO2 (centres unmarked)
A. false (0)

Q. Does the reported IC50 of the following molecule sit strictly below 6 nM? CC(=Cc1ccccc1)CN1CCN(CC2ON=C3c4ccc(OC(=O)C5CC5)cc4OCC32)CC1 (centres unmarked)
A. false (0)

More entries:
Q. Does the reported IC50 of the following molecule sit strictly below 6 nM? c1ccc2c(c1)NCC1C2=NOC1CN1CCN(Cc2ccc3ccccc3c2)CC1 (centres unmarked)
A. true (1)

Q. Does the reported IC50 of the following molecule sit strictly below 6 nM? COc1cc2c(cc1OC)C1=NOC(CN3CCN(C/C(C)=C/c4ccccc4)CC3)C1CO2 (single isomer, unassigned)
A. false (0)

Q. Does the reported IC50 of the following molecule sit strictly below 6 nM? COc1cc2c(cc1OC)C1=NOC(CN3CCN(C/C=C/C=C/c4ccccc4)CC3)C1CO2 (single isomer, unassigned)
A. false (0)
